Assay: Half life in ICR mouse at 0.5 mg/kg, iv by LC-MS/SM analysis
Assay type: ADME, organism-based
Settings: in vivo
endpoint label: half-life (min)

COc1ncc(-c2cc(O[C@@H]3CCOC3)c3ncnc(C)c3c2)cc1NS(=O)(=O)c1ccc(F)cc1F :: 21.6
COc1ncc(-c2cc(OC3CCOCC3)c3ncnc(C)c3c2)cc1NS(=O)(=O)c1ccc(F)cc1F :: 55.2
COc1ncc(-c2cc(OCC3(C)COC3)c3ncnc(C)c3c2)cc1NS(=O)(=O)c1ccc(F)cc1F :: 39.6

###

A collection of molecules and their measured clearance
Assay: Clearance in ICR mouse at 0.5 mg/kg, iv by LC-MS/SM analysis
Type: ADME, organism-based
Settings: in vivo
endpoint label: clearance (mL/min/kg)

COc1ncc(-c2cc(O[C@@H]3CCOC3)c3ncnc(C)c3c2)cc1NS(=O)(=O)c1ccc(F)cc1F :: 16
COc1ncc(-c2cc(OC3CCOCC3)c3ncnc(C)c3c2)cc1NS(=O)(=O)c1ccc(F)cc1F :: 4.58
COc1ncc(-c2cc(OCC3(C)COC3)c3ncnc(C)c3c2)cc1NS(=O)(=O)c1ccc(F)cc1F :: 12.8

###

Target: PI3-kinase p110-alpha/p85-alpha (Homo sapiens)
Sequence (P27986 whole entry): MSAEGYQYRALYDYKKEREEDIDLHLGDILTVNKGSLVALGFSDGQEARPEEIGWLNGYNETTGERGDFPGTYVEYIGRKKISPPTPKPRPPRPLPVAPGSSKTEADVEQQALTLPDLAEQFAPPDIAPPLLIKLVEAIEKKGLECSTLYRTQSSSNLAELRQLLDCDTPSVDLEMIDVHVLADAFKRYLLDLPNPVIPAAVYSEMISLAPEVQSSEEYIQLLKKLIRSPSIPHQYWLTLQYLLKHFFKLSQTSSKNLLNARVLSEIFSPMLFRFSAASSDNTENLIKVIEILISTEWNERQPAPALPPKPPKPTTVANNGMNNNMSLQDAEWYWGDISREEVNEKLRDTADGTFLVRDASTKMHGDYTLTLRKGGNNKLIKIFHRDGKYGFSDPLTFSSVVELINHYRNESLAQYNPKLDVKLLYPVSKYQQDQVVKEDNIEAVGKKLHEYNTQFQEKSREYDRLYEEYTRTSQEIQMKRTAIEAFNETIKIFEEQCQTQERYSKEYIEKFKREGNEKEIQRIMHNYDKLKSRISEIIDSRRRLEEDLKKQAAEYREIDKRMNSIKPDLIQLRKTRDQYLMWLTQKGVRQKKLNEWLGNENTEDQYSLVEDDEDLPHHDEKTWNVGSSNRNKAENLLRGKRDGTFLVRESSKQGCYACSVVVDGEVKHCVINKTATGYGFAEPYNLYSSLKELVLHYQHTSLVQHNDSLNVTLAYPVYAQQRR
Sequence (P42336 whole entry): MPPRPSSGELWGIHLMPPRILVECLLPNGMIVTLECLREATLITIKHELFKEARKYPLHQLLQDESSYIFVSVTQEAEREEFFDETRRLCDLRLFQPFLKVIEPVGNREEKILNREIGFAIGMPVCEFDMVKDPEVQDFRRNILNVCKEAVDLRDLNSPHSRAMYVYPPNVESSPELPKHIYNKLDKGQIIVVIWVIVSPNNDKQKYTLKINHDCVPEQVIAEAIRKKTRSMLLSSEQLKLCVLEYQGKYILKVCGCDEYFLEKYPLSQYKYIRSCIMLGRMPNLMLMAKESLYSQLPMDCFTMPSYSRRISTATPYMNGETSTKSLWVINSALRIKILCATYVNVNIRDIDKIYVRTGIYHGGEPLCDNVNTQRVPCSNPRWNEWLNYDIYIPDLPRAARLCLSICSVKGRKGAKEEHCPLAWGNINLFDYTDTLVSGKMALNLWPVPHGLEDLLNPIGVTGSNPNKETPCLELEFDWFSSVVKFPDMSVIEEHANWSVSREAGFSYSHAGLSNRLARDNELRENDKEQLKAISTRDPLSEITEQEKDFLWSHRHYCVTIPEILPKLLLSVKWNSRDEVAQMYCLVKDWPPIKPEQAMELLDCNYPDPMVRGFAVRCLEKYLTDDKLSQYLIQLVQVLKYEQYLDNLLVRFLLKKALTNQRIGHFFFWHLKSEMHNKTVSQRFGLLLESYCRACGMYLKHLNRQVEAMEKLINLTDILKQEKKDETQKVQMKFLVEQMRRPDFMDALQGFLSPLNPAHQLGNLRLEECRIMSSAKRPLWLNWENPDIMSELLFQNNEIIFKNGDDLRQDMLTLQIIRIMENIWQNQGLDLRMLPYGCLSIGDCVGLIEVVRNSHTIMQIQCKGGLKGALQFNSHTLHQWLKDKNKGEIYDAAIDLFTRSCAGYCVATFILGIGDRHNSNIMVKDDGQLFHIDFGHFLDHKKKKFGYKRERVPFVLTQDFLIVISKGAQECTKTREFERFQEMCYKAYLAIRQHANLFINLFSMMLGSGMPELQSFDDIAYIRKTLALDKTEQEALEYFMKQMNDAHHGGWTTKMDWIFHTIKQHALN
Assay: Inhibition of recombinant human N-terminal FLAG-tagged full-length p110alpha/human p85alpha expressed in Sf9 insect cells using PIP2 as substrate by kinase-glo assay
pIC50: −log10 of the molar value.
endpoint label: pIC50

COc1ncc(-c2cc(OCC3CCOC3)c3ncnc(C)c3c2)cc1NS(=O)(=O)c1ccc(F)cc1F (centres undefined) :: 9.02
COc1ccc(-c2cc(OC3CCOCC3)c3ncnc(C)c3c2)cn1 :: 7.51
COc1ncc(-c2cc(OCC3CCN(C)CC3)c3ncnc(C)c3c2)cc1NS(=O)(=O)c1ccc(F)cc1F :: 8.80
COc1ncc(-c2cc(OCC3CCOCC3)c3ncnc(C)c3c2)cc1NS(=O)(=O)c1ccc(F)cc1F :: 9.04
COc1ncc(-c2cc(O[C@@H]3CCOC3)c3ncnc(C)c3c2)cc1NS(=O)(=O)c1ccc(F)cc1F :: 9.06
COc1ncc(-c2cc(OC)c3ncnc(C)c3c2)cc1NS(=O)(=O)c1ccc(F)cc1F :: 8.92
COc1ncc(-c2cc(OC(F)F)c3ncnc(C)c3c2)cc1NS(=O)(=O)c1ccc(F)cc1F :: 8.77
COc1ncc(-c2cc(OCC3CC3)c3ncnc(C)c3c2)cc1NS(=O)(=O)c1ccc(F)cc1F :: 8.82
COc1ncc(-c2cc(OC3CCN(C)CC3)c3ncnc(C)c3c2)cc1NS(=O)(=O)c1ccc(F)cc1F :: 8.68
COc1ncc(-c2cc(OC3CCCCC3)c3ncnc(C)c3c2)cc1NS(=O)(=O)c1ccc(F)cc1F :: 8.82
COc1ncc(-c2cc(OCCN(C)C)c3ncnc(C)c3c2)cc1NS(=O)(=O)c1ccc(F)cc1F :: 8.28
COc1ncc(-c2cc(OC(C)C)c3ncnc(C)c3c2)cc1NS(=O)(=O)c1ccc(F)cc1F :: 8.70
COc1ncc(-c2cc(OCC3(C)COC3)c3ncnc(C)c3c2)cc1NS(=O)(=O)c1ccc(F)cc1F :: 9.06
COc1ncc(-c2cc(OC3CCC3)c3ncnc(C)c3c2)cc1NS(=O)(=O)c1ccc(F)cc1F :: 9.00
COc1ncc(-c2cc(OC3CCOC(C)(C)C3)c3ncnc(C)c3c2)cc1NS(=O)(=O)c1ccc(F)cc1F (centres undefined) :: 9.05
COc1ncc(-c2cc(OC3CCOCC3)c3ncnc(C)c3c2)cc1NS(=O)(=O)c1ccc(F)cc1F :: 9.22
COc1ncc(-c2cc(OCCN3CCOCC3)c3ncnc(C)c3c2)cc1NS(=O)(=O)c1ccc(F)cc1F :: 8.64
COc1ncc(-c2cc(OC3CCCC3)c3ncnc(C)c3c2)cc1NS(=O)(=O)c1ccc(F)cc1F :: 9.00
COc1ncc(-c2cc(OCCN3CCCC3)c3ncnc(C)c3c2)cc1NS(=O)(=O)c1ccc(F)cc1F :: 8.17
